B1: library; a variant is named by its letters at N, in order (parent)
chain: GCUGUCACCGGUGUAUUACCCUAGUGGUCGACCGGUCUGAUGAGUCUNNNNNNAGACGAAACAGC

Variants of: B1
RUN DESCRIPTION: normalized RNA/DNA level without ligand (relative to sTRSVctl = 100) (log10 (% of sTRSVctl)); ligand: hypoxanthine (xanthine aptamer); higher = less ribozyme self-cleavage, higher mRNA level
TEST CONTEXT: HEK293T, reporter: mCherry (pCS4076), ligand present: no
PROPERTY: normalized RNA/DNA level without ligand (log10)
Kindly provide the number alone.

Solved entries:
>>> df
                              sequence_text  recorded_number
0  GCUGUCACCGGUGUAUUACCCUAGUGGUCGACCGGUCUGAUGAGUCUGCAUGUAGACGAAACAGC [GCAUGU]             1.68
1  GCUGUCACCGGUGUAUUACCCUAGUGGUCGACCGGUCUGAUGAGUCUCAUAGGAGACGAAACAGC [CAUAGG]             1.43
2  GCUGUCACCGGUGUAUUACCCUAGUGGUCGACCGGUCUGAUGAGUCUUUAUUUAGACGAAACAGC [UUAUUU]             1.91
3  GCUGUCACCGGUGUAUUACCCUAGUGGUCGACCGGUCUGAUGAGUCUGAGAAUAGACGAAACAGC [GAGAAU]             1.67
4  GCUGUCACCGGUGUAUUACCCUAGUGGUCGACCGGUCUGAUGAGUCUUUUACUAGACGAAACAGC [UUUACU]             1.88
5  GCUGUCACCGGUGUAUUACCCUAGUGGUCGACCGGUCUGAUGAGUCUAUCUCCAGACGAAACAGC [AUCUCC]              1.9
6  GCUGUCACCGGUGUAUUACCCUAGUGGUCGACCGGUCUGAUGAGUCUGUUGUCAGACGAAACAGC [GUUGUC]              1.9
7  GCUGUCACCGGUGUAUUACCCUAGUGGUCGACCGGUCUGAUGAGUCUUACCCAAGACGAAACAGC [UACCCA]             1.89

**Query** Could you tell me which normalized RNA/DNA level without ligand (log10) is on file for GCUGUCACCGGUGUAUUACCCUAGUGGUCGACCGGUCUGAUGAGUCUCUAGGUAGACGAAACAGC [CUAGGU] ?
**Result** 1.88

**Query** Could you tell me which normalized RNA/DNA level without ligand (log10) is on file for GCUGUCACCGGUGUAUUACCCUAGUGGUCGACCGGUCUGAUGAGUCUACACUUAGACGAAACAGC [ACACUU] ?
**Result** 1.83

**Query** Could you tell me which normalized RNA/DNA level without ligand (log10) is on file for GCUGUCACCGGUGUAUUACCCUAGUGGUCGACCGGUCUGAUGAGUCUAGAUAUAGACGAAACAGC [AGAUAU] ?
**Result** 1.8

**Query** Could you tell me which normalized RNA/DNA level without ligand (log10) is on file for GCUGUCACCGGUGUAUUACCCUAGUGGUCGACCGGUCUGAUGAGUCUCAGUUUAGACGAAACAGC [CAGUUU] ?
**Result** 1.79

**Query** Could you tell me which normalized RNA/DNA level without ligand (log10) is on file for GCUGUCACCGGUGUAUUACCCUAGUGGUCGACCGGUCUGAUGAGUCUUUGUAUAGACGAAACAGC [UUGUAU] ?
**Result** 1.93

Data origin, for the record: the supplement of paper PMC6757056
